Values were extracted from the supplement of paper PMC10567573.

protein stability index: recorded values
B1: OAS1 (parent)
chain: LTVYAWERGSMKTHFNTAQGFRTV

- Variants of: B1
- measurement.protocol: protein stability index of a GFP-peptide fusion (GPS, HEK-293T) (PSI 1-6); higher = more stable;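 further: lentivirally expressed fusions sorted by FACS into six bins by GFP to DsRed ratio, PSI derived from sequencing read proportions per bin multiplied by bin number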
- recorded.conditions: c terminus: a fixed tail appended

- seq.string: "LTVYAWERGSMKWHFNTAQGFRTV [T13W]"
  protein stability index: 3.26
- seq.string: "LTVYAWERGSMKTHFNTAQGWRTV [F21W]"
  protein stability index: 2.21
- seq.string: "LTVYAWERGSMKTHGNTAQGFRTV [F15G]"
  protein stability index: 1.61
- seq.string: "LTVFAWERGSMKTHFNTAQGFRTV [Y4F]"
  protein stability index: 2.96
- seq.string: "LTVYAWERGSMKTHFNTAQGFRYV [T23Y]"
  protein stability index: 1.32
- seq.string: "LTVRAWERGSMKTHFNTAQGFRTV [Y4R]"
  protein stability index: 1.77
- seq.string: "LTVYAWERGSMKTHFNTAQGTRTV [F21T]"
  protein stability index: 1.96
- seq.string: "LTVYPWERGSMKTHFNTAQGFRTV [A5P]"
  protein stability index: 2.19
- seq.string: "LTVYAWERGSMMTHFNTAQGFRTV [K12M]"
  protein stability index: 3.75
